Test system: SF-295
PROTOCOL_DETAILS: NCI tumour cell line growth inhibition, 48 h
The source made the active and inactive calls. Rule as the data show it: active = GI50 up to about 1.1 µM and inactive = higher.
Classes used: true (1) = active, false (0) = inactive

> print(dat)
                                   compound  class.assignment
1  O=C1/C(=N\n2c(S)nnc2-c2ccncc2)c2cc(Cl)ccc2N1CN1CCCCC1         false (0)
2  Cc1ccc2c(c1)C(=O)C(Cc1ccccc1C(=O)O)C2 (stereo not given)         false (0)
3           O=C(O)c1cc(-c2ccncc2)nc2ccccc12         false (0)
4  COc1ccc2c(c1)CCc1cnn(C3OC(COC(C)=O)C(OC(C)=O)C(OC(C)=O)C3OC(C)=O)c1-2 (stereo not given)         false (0)
5  COc1cc(C2c3cc4c(cc3OC(NNS(=O)(=O)c3ccc(C)cc3)C2C)OCO4)cc(OC)c1OC (stereo not given)          true (1)
